Experiment: yeast display, Sf9 membrane polyspecificity reagent, FACS + sequencing; frameworks hold sequencing errors
TEST_READOUT: polyreactivity (PSR sort gate)

>>> measured_result("QVQLVESGGGLVQAGCSLRLSCASSGLTFSFYAMGWYRQAPGKERELVAAISKGGGSTSYADSVKGRFTISRDNAKNTVYLQMNSLKPEDTAVYYCAARYYYSRSRLYYYWGQVTQVTVSS")
"high polyreactivity"
>>> measured_result("QVQLVESGGGLVQAGGSLRLSCAASGRIFRWNAMGWYRQAPGKERELVAVISSGGSTNYADSVKGRFTISRDNAKNTVYLQMNSLKPEDTAVYYCAADEGYVWPYYGWGFGKYDYWGQGTQVTVSS")
"low polyreactivity"
>>> measured_result("QVQLVESGGGLVQAGGSLRLSCASSGRISYRNAMGWYRQAPGKERELVAAISSSGDSTYYADAVKGRFTISRDNAKNTVYLQMNSLKPEDTAVYYCAARHSAVYYGYHRYYYWGQGTQVTVSS")
"high polyreactivity"
>>> measured_result("QVQLEESGGGLVQAGGSLRLSCAASGSTFVPNDMGGYRQAPGKERELVAAITDSGGSTYYADSVKGRFTISRDNAKNTVYLQMNSLKPEDTAVYYCAAEKAEWYYHTVWHFARGEYWGQGTQVTVSS")
"low polyreactivity"
>>> measured_result("QDQLVESGGGLVQAGGSLRLSCAASGRIIRAYAMGWYRQAPGKERELVAAISGGSNTNYADSVKGRFTISRDNAKNTVYLQMNSLKPEDTAVYYCAADAGYWESLWYPYGFYWGQGTQVTVSS")
"low polyreactivity"
>>> measured_result("QVQLVESGGGLVQAGGSLRLSCAASGRTFLLNAMGWSRQAPGKERELVAAITRSGVITYYADSVKGRFTISRDNAKNTVYLQMNSLKPEDTAVYYCAAQLRYSYLRPSYYYWGQGTQVTVSS")
"high polyreactivity"

###

Experiment: yeast display, Sf9 membrane polyspecificity reagent, FACS + sequencing; frameworks hold sequencing errors
TEST_READOUT: polyreactivity (PSR sort gate)

>>> measured_result("QVQLEESGGGLVQAGGSLRLSCDASGRIFGGYAMGWYRQAPGKERELVAAISASGGRTYYADSVKGRFTISRDNAKNTVYLQMNSLKPEDTAVYYCAASFRRTSLRWHGEYWGQGTQVTVSS")
"high polyreactivity"
>>> measured_result("QVQLVESGGGLVQAGGSLRLSCAASGSIFYRNAMGWYRQAPGKERELVASISSSAGRTYYADSVKGRFTISRDNAKNTVYLQMNSLKPEDTAVYYCAVTSYRQRGAFDYWGQGTQVTVSS")
"high polyreactivity"
>>> measured_result("QVQLVESGGGLVQAGGSLRLSCAASGSIFYYNAMGWYRQAPGKERELVAAINSNGGSTYYADSVKGRFTISRDNAKNSVYFQMNSLKPEDTAVYYCNARYPGRTQGRYYYWGHGTQVTVSS")
"low polyreactivity"
>>> measured_result("QVQLEESGGGLVQAGGSLRLSCAASGFTFALYAMGWYRPAPRNEMEFVAAISRRGGSTYYADSVKGRFTISRDNAKNTVYLQMNSLKPEDTAVYYCAANYPFGVYHGAPYGYWGQGTQVTVSS")
"high polyreactivity"
>>> measured_result("QVQLVESGGGLVQAGGSLRLSCAASGSIFNRYAMRWYRQAPGKERALVAAISRSGSTYYADSVKGRFTISRDNAKNTVYLQMNSLKPEDTAVYYCNARGTTHHTSYDYWGQGTQVTVSS")
"low polyreactivity"
>>> measured_result("QVQLVESGGGLVQAGGRLRLSCAASGIIFRGNPMGRYRQAPGKERELVAAIARRGGRTYYADSVKGRFTISRDNAKNTVYLQMNCLKAEDTAVYFCAAGELGDYWGQGTQVTVSS")
"high polyreactivity"
>>> measured_result("QVQLVESGGGLVQAGGSLRLSCAASGRTFKVYAMGWYRQAPGKERELVAAITGGGSTNYADSVKGRFTISRDNAKNTVYLQMNSLKPEDTAVYYCNARYYYRLVKWSRFSSYDYWGQGTQVTVSS")
"low polyreactivity"
>>> measured_result("QVQLVESGGGLVQAGGSLRLSCAASGFIFTYNDMGWYRQAPGKERELVASISWDGGRTYYADSVKRRFTISRDNAKNTVYLQMNSLKPEDTADYYWDKRLGGSPIQARGDYWGQCTQVTVSS")
"low polyreactivity"

###

Assay: yeast display, Sf9 membrane polyspecificity reagent, FACS + sequencing; frameworks hold sequencing errors
TEST_READOUT: polyreactivity (PSR sort gate)

>>> measured_result("QVQLVESGGGLVQAGGSLRLSCAASGRIFSSYAMGWYRQAPGKERELVASIDWSDGSTYYADSVKGRFTIARDNAKNTVYLQMTSLKPEDTAVYYCAADFVPYLIYGYWGQGTQVTVTS")
"low polyreactivity"
>>> measured_result("QVQLVESGGGLVQAGGSLRLSCAASGFIFYINAMGWYRQAPGKERELVAAISTSGGSTYYADSVKGRFTISRDNAKNTVYLQMNSLKPEDSAVYYCAAEGSYWYYSYDYWGQGTQVTVSS")
"high polyreactivity"
>>> measured_result("QVQLVESGGGLVQAGGSLRLSCAASGSTFGYNAMGWYRQAPGTERELVAAISSRGGSTYYADSVKGRFTISRDNAKNTVYLQMNSLKPDDTAVYYCAADPPNGAEYYWGQGTQVTGSS")
"high polyreactivity"
>>> measured_result("QVQLVESGGGLVQAGGSLRLSCAASGRTLGQNAMGWYRQAPGKERELVASIRSGGITDYADSVKGRFTISRDNAKNTVYLQMNCLKPEDTAVYYCAADTYGYQGSAGGHWGQGTQVTVSS")
"low polyreactivity"
>>> measured_result("QVKLVESGGGLVQAGGSLRLSCAASGLIFDTYAMGWYRQAHGKERELVADITLSGGSTYYADSLKGRFTISRDTAKNTVYLQMNSLKPVDTAVYYCAADSVSLFYWDQRYPDEYDYWGQGTQVTVSS")
"low polyreactivity"
>>> measured_result("QVQLVVSGGGLVQAGGSLRLSCAASGITFYEYAMGWYRQAPGKERELVAAISSSGCTTYYADSVKGLFTISRDNAKNTVYLQLNSLKPEDTAVYYCAVGQRFAIWGPQGSYFYFESDYWGQGTQVTVSS")
"low polyreactivity"
>>> measured_result("QVQLVESGGGLVQAGGSLRLSCAASGFIFSLYAMGWYRQAPGKERELVAVITWSDGRTYYADSVKGRFTISRDNAKNTVYLQMNSLKPEDTAVYYCAAADWITEYDYWGQGTQVTVSS")
"low polyreactivity"
>>> measured_result("QVQLVESGGGLVQAGGSLRLSCAASGSTFPRNAMGWYRQAPGKERELVATITSSGGGTYYADSVKGRFTISRDNAKNTVYLQMNSLKPEDTAVYYCNVEVHPYYWVDNFHRFPVLHNYWGQGTQVTVSA")
"low polyreactivity"
>>> measured_result("PVQLVESGGGIVQAGGSLRLSCAASGSTFVGKAMGWSRQAPGKQREMFAAISRTGGSPYYADSVKGRFSISRDNAKNSVYLQMISLKPEDTAVYYCAEVYGGPYGELDYWGHGTQVTVSS")
"high polyreactivity"
>>> measured_result("QGQLVESGGGLVQAGGSLRLTCAASGITFDDYAMGWYRQAPGKERELVAAISWSGDITYYADSVKGRFTSSRDNATNTVYLQMNSLKPEDTAVYYCAADLSPYGYDYWGQGTQVTVSS")
"low polyreactivity"
>>> measured_result("QVQLVESGGGLVQAGGSLRLSCAASGRTFSFYAMGWYRQAPGKERELVAAISSGGGRTYYADSVKGRFTISRDNAKNTVYLQMHSLKPEDTAVYYCAAYRAYSGEFDYWGQGTQVTVSS")
"high polyreactivity"
>>> measured_result("QVQLVETGGGLVQAGGSLRLSCAASGRIFGYYTMGWYRPAPGKERELVADSSGGNTSYADSVKGRFTISRDNAKNTVYLQMNSLKPEDTAVYYCAKDLPGAWRGDDYWGQGTLVTVSS")
"low polyreactivity"

###

Assay: yeast display, Sf9 membrane polyspecificity reagent, FACS + sequencing; frameworks hold sequencing errors
TEST_READOUT: polyreactivity (PSR sort gate)

>>> measured_result("QVQLVESVGGLVQAGGSLRLSCAASGSIFVKYAMGWYRQAPGKECEMVPAISGSGGSTYYADSVKGRFTISRDNAKNTVYLQMNSLKQEDTAVYYCAADDYFYAGTLPGWWYDYWGQGTQVTVSS")
"low polyreactivity"
>>> measured_result("QVQLVESGGGLVQAGGSLRLSCAASGRTFQYYAVGWYRQAPGKERELVAAITSGGSTYYADSVKGRFTISRDNAKNTVYLQMNSLKPEDTAVYYCAAKRNVQLGYTVQSLYDYWGLGTQVTVSS")
"low polyreactivity"
>>> measured_result("QVQLVESGGGLVQAGGSLRLSCAASGRTFVANAMGWYRQAPGKERELVAAITSTGSTYYADSVKGRFTISRDNAKNTVYLQMNSLKPEDTAVYYCATYYWLGLSLYDYWGQGSQVTVSS")
"low polyreactivity"
>>> measured_result("QVQLVESGGGLVQAGGSLRLSCAASGSTFGIYAMGWYRPAPGKERELVAAISSGGSTNYADSVKGRFTISRDNAKNTVYLQMNCLKPEDSAVYYCAVESVYEYGGYVDSAYDYWGQGTQVTVSS")
"low polyreactivity"
>>> measured_result("QVQLVESGGGLVQAGGSLRLSCAASGFTFFTYAMGWYRQAPGNERELVAAISSSGDRTYYADSVKGRFTISRDNAKNTVYLQMNSLKPEDTAVYYCAVYKYYHFYYWGQGTQVTVSS")
"high polyreactivity"
>>> measured_result("QVQLVESGGGLVQAGGSLRLRCAASGRTFAFYGMGWYRQAPGNARELVAAITKRGGSTYYADSVKGRFTISLDNAKYTVYLQMNSLKPEDTAVYYCAATGVKGRIAVWYGYWGQGTQVTVSS")
"high polyreactivity"
>>> measured_result("QVQLVESGGGLVQAGGSLRLSCAASGITFYRYAMGWYRPAPGKERELVAAISSSGGSTYYADSVKGRFTISRDNAKNSVYLQMNRLKPEDTAVYYCNAVVQNPQEYDYWGQGTQVTVSS")
"high polyreactivity"
>>> measured_result("QVQLVESGGGLVQAGGSLRLSCAASGRIFYRYAMGWYRQAPGKERELVAAISSGGSTYYADSVKGRFTISRDNAKNTVYLQMNSLKPEDTAVYYCAATWGRGTYYLYYYWGQGTQVTVSS")
"high polyreactivity"
>>> measured_result("QVQLVESGGGLVQAGGSLRLSCAASGGIFSYYAMGWYRQAPGKEREFVAAIDWGGGSTYYADSVKGRFTISRDNAKNTVYFQMNSLKPEDTAVYYCAAEIYPIGWDDYDYWGQGTQVTVSS")
"low polyreactivity"
>>> measured_result("QVQLVESGGGLVQAGGSLRLSCAASGTFVKYARGWYRQAPGKERELVATITGSGGSTYYADSVKGRFTISRDNAKNTVYLQMNSLKPEDTAVYYCAAREGYVFYKYDYWGQGTQVTVSS")
"low polyreactivity"
>>> measured_result("QVQLVESGGGLVKAGGTLSLSCAASGFIFGFNAMGWYRQAPGKERELVADITSSGGSTYYADSVKGRFTISRDNAKNTVYLQMNSLKPEDTAVYYCAADGWWHNFYPGTGLDYWGQGTQVSVSS")
"low polyreactivity"
>>> measured_result("QVQLVESGGGLVQAGGSLRLSCAASGSIFIGYAMGWYRQAPGKERELVAAISWSGDSTYYADSVKGRFTISRDNAKNTVYLQMNSLKPEDTAVYYCARDKWGLRYAPTVDYWGQGTQVTVSS")
"high polyreactivity"
>>> measured_result("QVQLVESGGGLVQAGGSLRLSCSASGFIFRRYAMGWYRQAPGKEREFVAAITSSGTSTYYADSVKGRFTISRDNAKNTVYLQMNSLKPEDTAVYYCADVYQYTHYYSNYGYWGEGTQVTVSS")
"high polyreactivity"
>>> measured_result("QVQLVESGGGLVQAGGSLSLSCAASGFIFSYYVMGWYRQAPGKERELVAAINESGGRTYYADSVKGRFTISRDNAKNTVYLQMNSLNPEDTAVYYCAASVLNKIQGYRDYYWGQGTQVTVSS")
"low polyreactivity"
>>> measured_result("QVQLVESGGGLVQAGGSLRLSCAASGSIFFYNTMGWYRQARGKERELVATINSDDSTYYADSVKGGFTISRDNAKNTVYIQMNSLKPEDTAVYYCNVRVKGGKLVAYDYWGQGTQVTLSS")
"low polyreactivity"
>>> measured_result("QVQLVESGGGLVQAGGSLRLSCAASGRTFHDNGMGGYRQAPGKERELVAAISWRGGSTNYADSVKGRFTISRDNAKNTVYLQMNSLKPEETAVYFCNRVPRKFGKLDYWGQGTQVTVSS")
"low polyreactivity"
